These data points were gathered from ChEMBL document CHEMBL1781906.

# Test system: Escherichia coli
# TEST_DESCRIPTION: Antibacterial activity against Escherichia coli ATCC 25922 after 18 to 24 hrs by […]
# Format: functional
METRIC: log10(MIC) (log10 of the value in µg/mL)
// units: µg/mL (pre-log); metric: MIC; scale: log10

Check out these entries, answers already filled in.
COc1ccc2nc(C)cc(-n3cc(CN4CCN(C(=O)c5ccc(F)cc5)CC4)nn3)c2c1 | -0.10
COc1ccc2nc(C)cc(-n3cc(CNC(=O)C4CC4)nn3)c2c1 | -0.40
COc1ccc2nc(C)cc(-n3cc(CNC(=O)c4ccccc4Cl)nn3)c2c1 | 0.49
COc1ccc2nc(C)cc(-n3cc(CN4CCN(C(=O)c5ccccc5Cl)CC4)nn3)c2c1 | 0.80

Hello, please tell me recorded log10(MIC) for this one: `COc1ccc(S(=O)(=O)NCc2cn(-c3cc(C)nc4ccc(OC)cc34)nn2)cc1`
0.49

Give me measured log10(MIC), please, for this molecule: `COc1ccc2nc(C)cc(-n3cc(CN4CCN(C(=O)c5ccc(Cl)c(Cl)c5)CC4)nn3)c2c1`
0.49

Give reported log10(MIC) value for `COc1ccc2nc(C)cc(-n3cc(CNC(=O)c4ccc(C(F)(F)F)cc4)nn3)c2c1`
-0.40

Specify measured log10(MIC) for `COc1ccc2nc(C)cc(-n3cc(CNS(=O)(=O)c4ccc(C)cc4)nn3)c2c1` .
0.80

Indicate the recorded log10(MIC) value for this molecule: `COc1ccc2nc(C)cc(-n3cc(CN4CCN(C(=O)c5ccc(C)cc5)CC4)nn3)c2c1`
0.80

Name the recorded log10(MIC) of the item `COc1ccc2nc(C)cc(-n3cc(CN4CCN(C(=O)c5ccccc5)CC4)nn3)c2c1` in your answer.
-0.40

In one line, give reported log10(MIC) of the entry `COc1ccc2nc(C)cc(-n3cc(CNS(=O)(=O)c4ccccc4C(F)(F)F)nn3)c2c1` .
-0.70

Using the record for `COc1ccc2nc(C)cc(-n3cc(CNC(=O)C4CCC4)nn3)c2c1` , state its measured log10(MIC).
0.20

Let me know recorded log10(MIC) for `CCc1ccc(S(=O)(=O)NCc2cn(-c3cc(C)nc4ccc(OC)cc34)nn2)cc1` , thanks.
0.80

Hello, please tell me recorded log10(MIC) for this one: `COc1ccc2nc(C)cc(-n3cc(CN4CCN(C(C)=O)CC4)nn3)c2c1`
-1.00
